# EXPERIMENTAL_SYSTEM: PI 4-kinase beta (Homo sapiens (Human), UniProt Q9UBF8)
# Sequence (Q9UBF8 whole entry): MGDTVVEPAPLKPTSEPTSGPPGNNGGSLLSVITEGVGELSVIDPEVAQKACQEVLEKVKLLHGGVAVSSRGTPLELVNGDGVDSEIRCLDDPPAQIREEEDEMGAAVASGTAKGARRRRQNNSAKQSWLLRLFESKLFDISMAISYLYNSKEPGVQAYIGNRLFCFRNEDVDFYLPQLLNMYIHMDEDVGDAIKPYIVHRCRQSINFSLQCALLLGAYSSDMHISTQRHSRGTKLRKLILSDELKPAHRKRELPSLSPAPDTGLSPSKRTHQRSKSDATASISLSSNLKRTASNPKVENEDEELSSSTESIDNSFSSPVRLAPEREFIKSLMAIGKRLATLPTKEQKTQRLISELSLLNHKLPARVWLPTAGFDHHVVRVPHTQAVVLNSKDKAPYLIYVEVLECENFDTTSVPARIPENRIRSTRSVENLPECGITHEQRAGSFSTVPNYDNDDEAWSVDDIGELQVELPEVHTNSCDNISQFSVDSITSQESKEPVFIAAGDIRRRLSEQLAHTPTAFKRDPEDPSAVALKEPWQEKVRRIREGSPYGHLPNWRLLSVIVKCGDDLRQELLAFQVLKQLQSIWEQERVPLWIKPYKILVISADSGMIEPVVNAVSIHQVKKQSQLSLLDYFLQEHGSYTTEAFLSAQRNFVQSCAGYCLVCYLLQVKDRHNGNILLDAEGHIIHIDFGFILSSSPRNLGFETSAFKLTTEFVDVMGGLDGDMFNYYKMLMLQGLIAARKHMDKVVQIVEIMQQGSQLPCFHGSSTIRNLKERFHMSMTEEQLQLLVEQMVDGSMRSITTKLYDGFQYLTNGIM
pIC50: −log10 of the molar value. Where a name gives a salt, the structure may show the parent alone.
MEASURED_ENDPOINT: pIC50

>>> obs_value("Cc1ccc(S(=O)(=O)NCC(C)(C)O)cc1-c1cnc(N)c(-c2cn(C)nn2)c1 [Example 63, hydrochloride]")
5.02
>>> obs_value("Cc1noc(-c2cc(-c3cc(S(=O)(=O)NCC4CCOC4)ccc3C)cnc2N)n1 (stereo not shown)")
5.00
>>> obs_value("Cc1ncc(-c2cc(-c3cc(S(=O)(=O)NCC4(O)CCOCC4)ccc3C)cnc2N)o1")
5.09
>>> obs_value("Cc1noc(-c2cc(-c3cc(S(=O)(=O)NCC4(CO)CCCC4)ccc3C)cnc2N)n1")
5.30
>>> obs_value("Cc1ncc(-c2cc(-c3cc(S(=O)(=O)NC(CO)C(F)(F)F)ccc3C)cnc2N)o1 (stereo not shown)")
5.64
>>> obs_value("Cc1cc(-c2cc(-c3cc(S(=O)(=O)NC[C@H]4CCOC4)ccc3C)cnc2N)on1 [Example 4.7, hydrochloride]")
5.77
>>> obs_value("Cc1ccc(S(=O)(=O)N[C@H]2CC[C@H](O)CC2)cc1-c1cnc(N)c(-c2cnn(CC(F)(F)F)c2)c1")
6.19
>>> obs_value("Cc1ncc(-c2cc(-c3cc(S(=O)(=O)N[C@H]4CC[C@H](O)CC4)ccc3C)cnc2N)s1")
5.87
>>> obs_value("Cc1noc(-c2cc(-c3cc(S(=O)(=O)N4CC(CO)C4)ccc3C)cnc2N)n1")
5.32
>>> obs_value("Cc1ncc(-c2cc(-c3cc(S(=O)(=O)NCC4(O)COC4)ccc3C)cnc2N)o1")
5.74
>>> obs_value("Cc1noc(-c2cc(-c3cc(S(=O)(=O)NC[C@@H]4CCOC4)ccc3C)cnc2N)n1")
5.21
>>> obs_value("Cc1ccc(S(=O)(=O)NCC(C)(C)O)cc1-c1cnc(N)c(-c2ccn(C)c2)c1 [Example 58, hydrochloride]")
5.49
